Settings: Chondroitin Sulfate A concentration vs RFU, linear regression
Method: The excitation spectrum of the probe was analyzed for wavelengths 300-500 nm with emission read at 545 nm. 3 μM of each probe was applied to serial two fold dilutions of the carbohydrate. Respective probes were excited at wavelengths unique to each probe (specified in figure), and emission was read at 545 nm. […] The excitation wavelength (emission detected at 545 nm) selected for each LCO is either (1) the λmax, or (2) the excitation wavelength which suffers the lowest background. […]
property_label: Quality of Gradient

Illustrative cases are given below, each with its answer.
Cl.Cl.N=C(N)NCCC[C@H](NC(=O)Cc1cc(-c2cccs2)sc1-c1ccc(-c2sc(-c3cccs3)cc2CC(=O)N[C@@H](CCCNC(=N)N)C(=O)O)s1)C(=O)O: Positive
NCCCC[C@H](NC(=O)Cc1cc(-c2cccs2)sc1-c1ccc(-c2sc(-c3cccs3)cc2CC(=O)N[C@@H](CCCCN)C(=O)[O-])s1)C(=O)[O-].[Na+].[Na+]: Positive
O=C([O-])C[C@H](NC(=O)Cc1cc(-c2cccs2)sc1-c1ccc(-c2sc(-c3cccs3)cc2CC(=O)N[C@@H](CC(=O)[O-])C(=O)[O-])s1)C(=O)[O-].[Na+].[Na+].[Na+].[Na+]: Horizontal
O=C(Cc1cc(-c2cccs2)sc1-c1ccc(-c2sc(-c3cccs3)cc2CC(=O)N[C@@H](Cc2ccc([O-])cc2)C(=O)[O-])s1)N[C@@H](Cc1ccc([O-])cc1)C(=O)[O-].[Na+].[Na+].[Na+].[Na+]: Positive
Cl.Cl.NCCc1cc(-c2cccs2)sc1-c1ccc(-c2sc(-c3cccs3)cc2CCN)s1 [pHTEA, penta Hydrogen Thiophene Ethanol Amine]: Positive
Cl.Cl.O=C(Cc1cc(-c2cccs2)sc1-c1ccc(-c2sc(-c3cccs3)cc2CC(=O)NCCc2c[nH]cn2)s1)NCCc1c[nH]cn1: Positive
O=C([O-])CC[C@H](NC(=O)Cc1cc(-c2cccs2)sc1-c1ccc(-c2sc(-c3cccs3)cc2CC(=O)N[C@@H](CCC(=O)[O-])C(=O)[O-])s1)C(=O)[O-].[Na+].[Na+].[Na+].[Na+]: Horizontal

Kindly consider the entry below.
Input: Need Quality of Gradient, item Cl.Cl.c1csc(-c2cc(CCn3ccnc3)c(-c3ccc(-c4sc(-c5cccs5)cc4CCn4ccnc4)s3)s2)c1 [pHTIm, penta Hydrogen Thiophene Imidazole]
Output: Positive
